# targetSystem: Tyrosine-protein kinase Fyn (Homo sapiens); also: in the data inactive means no Kd found up to 30 µM
# Sequence (P06241 whole entry): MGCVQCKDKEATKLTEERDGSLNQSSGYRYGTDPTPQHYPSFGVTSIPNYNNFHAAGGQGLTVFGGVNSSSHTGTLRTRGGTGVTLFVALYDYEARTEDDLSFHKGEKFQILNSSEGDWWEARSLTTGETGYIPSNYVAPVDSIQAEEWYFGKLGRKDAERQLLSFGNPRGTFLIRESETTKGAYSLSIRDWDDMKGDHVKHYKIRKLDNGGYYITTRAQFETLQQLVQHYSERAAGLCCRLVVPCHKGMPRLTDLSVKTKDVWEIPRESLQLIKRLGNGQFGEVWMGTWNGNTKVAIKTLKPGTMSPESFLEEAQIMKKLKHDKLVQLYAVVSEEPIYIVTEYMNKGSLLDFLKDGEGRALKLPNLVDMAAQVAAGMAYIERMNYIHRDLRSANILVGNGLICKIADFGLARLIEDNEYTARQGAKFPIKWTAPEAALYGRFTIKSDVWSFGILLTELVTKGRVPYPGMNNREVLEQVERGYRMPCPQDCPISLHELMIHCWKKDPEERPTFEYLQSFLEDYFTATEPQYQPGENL
Calls of active or inactive are those of the source.
Possible outcomes: y = active, n = inactive

compound="O=c1sn(-c2cccc3ccccc23)c(=O)n1Cc1ccccc1 [TIDEGLUSIB]" targetsystem="Tyrosine-protein kinase Fyn (Homo sapiens)" answerlabel=n
compound="COCCNCc1ccc(-c2cc3nccc(Oc4ccc(NC(=S)NC(=O)Cc5ccc(F)cc5)cc4F)c3s2)nc1 [GLESATINIB]" targetsystem="Tyrosine-protein kinase Fyn (Homo sapiens)" answerlabel=y
compound="COc1cc(OC)c(/C=C/S(=O)(=O)Cc2ccc(OC)c(NCC(=O)O)c2)c(OC)c1 [RIGOSERTIB]" targetsystem="Tyrosine-protein kinase Fyn (Homo sapiens)" answerlabel=n
compound="Cn1cc(-c2ccc(F)c(C(F)(F)F)c2)nc1C1CCN(c2ncnc3[nH]ncc23)CC1 [LY-2584702]" targetsystem="Tyrosine-protein kinase Fyn (Homo sapiens)" answerlabel=n
compound="O=C1NC(=O)/C(=C/c2ccc3nccc(-c4ccncc4)c3c2)S1 [GSK-1059615]" targetsystem="Tyrosine-protein kinase Fyn (Homo sapiens)" answerlabel=n
compound="O=C(c1ccc(F)c(F)c1Nc1ccc(I)cc1F)N1CC(O)([C@@H]2CCCCN2)C1 [COBIMETINIB]" targetsystem="Tyrosine-protein kinase Fyn (Homo sapiens)" answerlabel=n
compound="COc1cc(CCc2cc(NC(=O)c3ccc(N4C[C@@H](C)N[C@@H](C)C4)cc3)n[nH]2)cc(OC)c1 [AZD-4547]" targetsystem="Tyrosine-protein kinase Fyn (Homo sapiens)" answerlabel=n
compound="CC(=O)Nc1cccc(-n2c(=O)n(C3CC3)c(=O)c3c(Nc4ccc(I)cc4F)n(C)c(=O)c(C)c32)c1 [TRAMETINIB]" targetsystem="Tyrosine-protein kinase Fyn (Homo sapiens)" answerlabel=n

* * *

# targetSystem: Casein kinase I isoform epsilon (Homo sapiens, UniProt P49674); also: in the data inactive means no Kd found up to 30 µM
# Sequence (P49674 whole entry, canonical isoform): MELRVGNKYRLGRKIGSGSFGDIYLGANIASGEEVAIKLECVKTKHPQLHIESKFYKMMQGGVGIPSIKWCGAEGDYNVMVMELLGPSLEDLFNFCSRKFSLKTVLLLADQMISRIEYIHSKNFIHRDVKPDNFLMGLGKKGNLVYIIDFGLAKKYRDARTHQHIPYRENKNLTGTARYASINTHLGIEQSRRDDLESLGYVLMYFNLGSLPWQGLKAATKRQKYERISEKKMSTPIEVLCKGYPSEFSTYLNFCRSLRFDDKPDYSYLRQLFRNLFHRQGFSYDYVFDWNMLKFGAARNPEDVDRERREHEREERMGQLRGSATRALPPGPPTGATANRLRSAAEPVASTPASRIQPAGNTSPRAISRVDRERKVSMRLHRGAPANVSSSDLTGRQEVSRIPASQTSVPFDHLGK
The source made the active and inactive calls.
Possible outcomes: T = active, F = inactive

moleculesmiles=CN(C)C(=O)c1cc2cnc(Nc3ccc(N4CCNCC4)cn3)nc2n1C1CCCC1 answerlabel=F
moleculesmiles=Cc1cc(-c2cc(O)ccc2Cl)cc2nnc(Nc3ccc(OCCN4CCCC4)cc3)nc12 answerlabel=F
moleculesmiles=COc1cc(N2CCC(N3CCN(C)CC3)CC2)ccc1Nc1ncnc(Nc2ccccc2S(=O)(=O)C(C)C)n1 answerlabel=F
moleculesmiles=Cc1nc(N)sc1-c1ccnc(Nc2ccc(N3CCOCC3)cc2)n1 answerlabel=T
moleculesmiles=COc1cc(CCc2cc(NC(=O)c3ccc(N4C[C@@H](C)N[C@@H](C)C4)cc3)n[nH]2)cc(OC)c1 answerlabel=F
moleculesmiles=CCCS(=O)(=O)Nc1ccc(F)c(C(=O)c2c[nH]c3ncc(-c4ccc(Cl)cc4)cc23)c1F answerlabel=F
moleculesmiles=O=C(Nc1cccc(Cl)c1)Nc1ncc(CCNc2ncnc3ccsc23)s1 answerlabel=F
moleculesmiles=CN1CCC(COc2cnc(-c3cccc(Cn4nc(-c5cccc(C#N)c5)ccc4=O)c3)nc2)CC1 answerlabel=F
moleculesmiles=CCS(=O)(=O)N1CC(CC#N)(n2cc(-c3ncnc4[nH]ccc34)cn2)C1 answerlabel=F
moleculesmiles=CNS(=O)(=O)Nc1nccc(Cc2c(C)c3ccc(Oc4ncccn4)cc3oc2=O)c1F answerlabel=F
moleculesmiles=CCc1cnn2c(NCc3ccc[n+]([O-])c3)cc(N3CCCC[C@H]3CCO)nc12 answerlabel=F
moleculesmiles=C=CC(=O)N1CCC(Oc2cc3c(Nc4ccc(Cl)c(Cl)c4F)ncnc3cc2OC)CC1 answerlabel=F
moleculesmiles=O=c1sn(-c2cccc3ccccc23)c(=O)n1Cc1ccccc1 answerlabel=F
moleculesmiles=COCCNCc1ccc(-c2cc3nccc(Oc4ccc(NC(=S)NC(=O)Cc5ccc(F)cc5)cc4F)c3s2)nc1 answerlabel=F

* * *

# targetSystem: Mitogen-activated protein kinase kinase kinase kinase 5 (Homo sapiens); also: in the data inactive means no Kd found up to 30 µM
# Sequence (Q9Y4K4 whole entry): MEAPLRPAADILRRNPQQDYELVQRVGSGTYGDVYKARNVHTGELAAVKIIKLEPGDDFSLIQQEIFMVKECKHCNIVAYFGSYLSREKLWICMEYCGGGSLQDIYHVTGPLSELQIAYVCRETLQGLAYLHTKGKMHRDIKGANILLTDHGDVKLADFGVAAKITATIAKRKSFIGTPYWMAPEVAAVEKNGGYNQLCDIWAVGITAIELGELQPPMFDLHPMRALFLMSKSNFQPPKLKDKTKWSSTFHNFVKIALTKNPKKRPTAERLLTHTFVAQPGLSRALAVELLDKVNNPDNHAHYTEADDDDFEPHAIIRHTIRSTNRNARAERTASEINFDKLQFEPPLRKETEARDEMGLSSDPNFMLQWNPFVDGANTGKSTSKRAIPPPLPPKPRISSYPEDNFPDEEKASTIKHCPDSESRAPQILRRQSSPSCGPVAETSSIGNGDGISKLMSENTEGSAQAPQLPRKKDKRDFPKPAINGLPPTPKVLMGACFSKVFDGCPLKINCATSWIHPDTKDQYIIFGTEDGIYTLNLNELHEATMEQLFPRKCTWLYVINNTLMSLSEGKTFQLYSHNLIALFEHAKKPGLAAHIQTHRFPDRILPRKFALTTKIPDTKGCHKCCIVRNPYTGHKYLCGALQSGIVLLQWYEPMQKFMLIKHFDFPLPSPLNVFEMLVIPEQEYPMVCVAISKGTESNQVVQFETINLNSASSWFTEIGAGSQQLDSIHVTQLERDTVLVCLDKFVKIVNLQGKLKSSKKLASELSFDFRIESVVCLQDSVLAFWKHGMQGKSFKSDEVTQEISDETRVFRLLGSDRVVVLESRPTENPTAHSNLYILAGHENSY
Active and inactive are the calls of the source.
Possible outcomes: true (1) (active), false (0) (inactive)

compound=CO[C@H]1C[C@@H]2CC[C@@H](C)[C@@](O)(O2)C(=O)C(=O)N2CCCC[C@H]2C(=O)O[C@H]([C@H](C)C[C@@H]2CC[C@@H](OCCO)[C@H](OC)C2)CC(=O)[C@H](C)/C=C(\C)[C@@H](O)[C@@H](OC)C(=O)[C@H](C)C[C@H](C)/C=C/C=C/C=C/1C answerlabel="false (0)"
compound=Cc1ccc(S(=O)(=O)Nc2nc3ccccc3nc2Nc2ccc3nsnc3c2)cc1 answerlabel="false (0)"
compound=CC[C@H](Nc1ncnc2[nH]cnc12)c1nc2cccc(F)c2c(=O)n1-c1ccccc1 answerlabel="false (0)"
compound=Cn1cc(-c2ccc(F)c(C(F)(F)F)c2)nc1C1CCN(c2ncnc3[nH]ncc23)CC1 answerlabel="false (0)"
compound=CN1CCC(COc2cnc(-c3cccc(Cn4nc(-c5cccc(C#N)c5)ccc4=O)c3)nc2)CC1 answerlabel="false (0)"
compound=O=c1sn(-c2cccc3ccccc23)c(=O)n1Cc1ccccc1 answerlabel="false (0)"
compound=CNS(=O)(=O)Nc1nccc(Cc2c(C)c3ccc(Oc4ncccn4)cc3oc2=O)c1F answerlabel="false (0)"
compound=COc1ccc(-c2ccc3c(N4CCOC[C@@H]4C)nc(N4CCOC[C@@H]4C)nc3n2)cc1CO answerlabel="false (0)"
compound="Cc1cc2c(F)c(Oc3ncnn4cc(OC[C@@H](C)OC(=O)[C@H](C)N)c(C)c34)ccc2[nH]1 [BRIVANIB ALANINATE]" answerlabel="false (0)"
compound=COc1cc(N2CCC(N3CCN(C)CC3)CC2)ccc1Nc1ncnc(Nc2ccccc2S(=O)(=O)C(C)C)n1 answerlabel="false (0)"
compound=N[C@@H]1CCCN(c2c(/C=C3\SC(=O)NC3=O)cccc2-c2ccccc2)C1 answerlabel="false (0)"
compound=C[C@@H](c1ccc2nccn2c1)n1nnc2ncc(-c3cnn(C)c3)nc21 answerlabel="false (0)"
compound=CN(C)C(=O)c1cc2cnc(Nc3ccc(N4CCNCC4)cn3)nc2n1C1CCCC1 answerlabel="false (0)"
compound=O=C(O)[C@]1(Cc2cccc(Nc3nccs3)n2)CC[C@@H](Oc2cccc(Cl)c2F)CC1 answerlabel="false (0)"
compound=OCCn1cc(-c2cnc3nnn(Cc4ccc5ncccc5c4)c3n2)cn1 answerlabel="false (0)"
compound="CN1N=C(N)c2cn([C@@H]3O[C@H](COP(=O)(O)O)[C@@H](O)[C@H]3O)c3ncnc1c23 [TRICIRIBINE PHOSPHATE]" answerlabel="false (0)"
compound="O=C(Nc1ccc(-c2ccnc(Nc3ccc(N4CCOCC4)cc3)n2)cc1)C1CCCN1 (stereo unspecified)" answerlabel="false (0)"
compound=CNC(=O)c1ccc(-c2cnc3ncc(Cc4ccc5ncccc5c4)n3n2)cc1F answerlabel="false (0)"
compound=CCc1cnn2c(NCc3ccc[n+]([O-])c3)cc(N3CCCC[C@H]3CCO)nc12 answerlabel="false (0)"
compound="COC(=O)[C@@]1(O)C[C@H]2O[C@]1(C)n1c3ccccc3c3c4c(c5c6ccccc6n2c5c31)C(=O)NC4 [K-252A]" answerlabel="true (1)"
compound=Cn1cc(-c2ccc3nnc(C(F)(F)c4ccc5ncccc5c4)n3n2)cn1 answerlabel="false (0)"
compound=CC(C)Nc1cc(-c2c[nH]c(C(=O)N[C@H](CO)c3cccc(Cl)c3)c2)c(Cl)cn1 answerlabel="false (0)"
compound=Cc1cc(-c2cc(O)ccc2Cl)cc2nnc(Nc3ccc(OCCN4CCCC4)cc3)nc12 answerlabel="false (0)"
compound=C[C@@H]1CN(Cc2ccc(F)cc2)[C@@H](C)CN1C(=O)c1cc2c(C(=O)C(=O)N(C)C)cn(C)c2cc1Cl answerlabel="false (0)"
compound=C=CC(=O)N1CCC(Oc2cc3c(Nc4ccc(Cl)c(Cl)c4F)ncnc3cc2OC)CC1 answerlabel="false (0)"
compound=CN1CCC(CNc2ccc3ncc(-c4cccc(OC(F)(F)F)c4)n3n2)CC1 answerlabel="false (0)"
compound=CCn1c(=O)c(-c2cc[nH]n2)cc2c(C)nc(N)nc21 answerlabel="false (0)"
compound=C1=C/COCc2cc(ccc2OCCN2CCCC2)Nc2nccc(n2)-c2cccc(c2)COC/1 answerlabel="false (0)"
compound=Cc1ccc(-n2nc(C(C)(C)C)cc2NC(=O)NCc2cc(F)ccc2Oc2ccc3c(cnn3CCO)c2)cc1 answerlabel="false (0)"
compound=CN1CC[C@@H](c2c(O)cc(O)c3c(=O)cc(-c4ccccc4Cl)oc23)[C@@H]1CO answerlabel="false (0)"
compound=CCN1CCN(Cc2ccc(-c3cc4c(N[C@H](C)c5ccccc5)ncnc4[nH]3)cc2)CC1 answerlabel="true (1)"

* * *

Each item that follows carries a reported Kd.
# targetSystem: UniProt P54764
# Sequence (P54764 whole entry): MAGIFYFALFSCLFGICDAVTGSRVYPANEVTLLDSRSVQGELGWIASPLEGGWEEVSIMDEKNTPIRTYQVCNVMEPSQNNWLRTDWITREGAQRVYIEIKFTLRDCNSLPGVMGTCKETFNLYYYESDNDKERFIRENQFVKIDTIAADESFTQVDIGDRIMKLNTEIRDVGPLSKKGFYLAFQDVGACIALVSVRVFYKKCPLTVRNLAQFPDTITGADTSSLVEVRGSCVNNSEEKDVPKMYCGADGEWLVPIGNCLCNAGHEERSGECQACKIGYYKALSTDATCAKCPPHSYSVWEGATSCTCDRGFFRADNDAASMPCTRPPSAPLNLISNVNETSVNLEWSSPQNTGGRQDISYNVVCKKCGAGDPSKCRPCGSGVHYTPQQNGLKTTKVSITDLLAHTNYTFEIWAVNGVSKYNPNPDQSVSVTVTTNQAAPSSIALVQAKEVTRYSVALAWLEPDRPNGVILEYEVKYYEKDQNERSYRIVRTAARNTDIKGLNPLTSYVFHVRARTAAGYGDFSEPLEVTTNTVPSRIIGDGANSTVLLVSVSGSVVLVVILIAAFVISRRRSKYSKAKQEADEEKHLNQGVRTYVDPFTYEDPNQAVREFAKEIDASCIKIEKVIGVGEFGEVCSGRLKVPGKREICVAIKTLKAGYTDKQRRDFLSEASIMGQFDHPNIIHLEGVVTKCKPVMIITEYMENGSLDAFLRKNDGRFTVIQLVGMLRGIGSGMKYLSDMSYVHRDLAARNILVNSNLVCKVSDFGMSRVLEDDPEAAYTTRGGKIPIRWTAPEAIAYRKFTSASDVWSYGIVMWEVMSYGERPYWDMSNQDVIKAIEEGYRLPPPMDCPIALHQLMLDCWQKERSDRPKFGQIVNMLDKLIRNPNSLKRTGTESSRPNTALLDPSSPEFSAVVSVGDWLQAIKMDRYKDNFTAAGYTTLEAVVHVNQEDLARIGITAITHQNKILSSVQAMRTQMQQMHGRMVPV
The source made the active and inactive calls.
measuredProperty: Kd

moleculesmiles=CNC(=O)c1cc(Oc2ccc(NC(=O)Nc3ccc(Cl)c(C(F)(F)F)c3)c(F)c2)ccn1 targetsystem="UniProt P54764" measuredproperty=Kd endpointvalue="> 30 µM (inactive)"
moleculesmiles=COc1ccc(-c2ccc3c(N4CCOC[C@@H]4C)nc(N4CCOC[C@@H]4C)nc3n2)cc1CO targetsystem="UniProt P54764" measuredproperty=Kd endpointvalue="> 30 µM (inactive)"
moleculesmiles=COCCNCc1ccc(-c2cc3nccc(Oc4ccc(NC(=S)NC(=O)Cc5ccc(F)cc5)cc4F)c3s2)nc1 targetsystem="UniProt P54764" measuredproperty=Kd endpointvalue="> 30 µM (inactive)"
moleculesmiles=Cn1ncc(Cl)c1-c1cc(C(=O)N[C@H](CN)Cc2cccc(F)c2)sc1Cl targetsystem="UniProt P54764" measuredproperty=Kd endpointvalue="> 30 µM (inactive)"

Origin of measurements: ChEMBL document CHEMBL3991601
